FYI, the data here is from paper PMC5101896.

assay protocol: Particle size and polydispersity by dynamic light scattering (DLS)
Assay type: physicochemical
measurement parameters: Zetasizer Nano ZSP, lactosomes in saline, n = 3, mean ± standard deviation
No end group written: not given here.
Record form. Attribute: Diameter. Fill in for each entry.
# unit: nm | format: bare number

Would you kindly share the measured Diameter for RRRRRRRRRGALFLAFLAAALSLMG-C (RRRRRRRRRGALFLAFLAAALSLMGC; also: C-terminal Cys linked via maleimide to PSar56-PLLA30 (lactosome)) [R9MPG, A3B-type lactosome modified with the CPP R9MPG via maleimide-PSar56-PLLA30] ?
43.9

Would you kindly share the measured Diameter for LIRLWSHLIHIWFQNRRLKWKKK-C (LIRLWSHLIHIWFQNRRLKWKKKC; also: C-terminal Cys linked via maleimide to PSar56-PLLA30 (lactosome)) [EB1, A3B-type lactosome modified with the CPP EB1 via maleimide-PSar56-PLLA30] ?
38.3

Would you kindly share the measured Diameter for YGRKKRRQRRR-C [Tat, A3B-type lactosome modified with the CPP Tat via maleimide-PSar56-PLLA30] ?
36.2

Would you kindly share the measured Diameter for RKKRRRESRKKRRRES-C (RKKRRRESRKKRRRESC; also: C-terminal Cys linked via maleimide to PSar56-PLLA30 (lactosome)) [DPV3, A3B-type lactosome modified with the CPP DPV3 via maleimide-PSar56-PLLA30] ?
37.0

* * *

assay protocol: Zeta potential by laser Doppler electrophoresis
Assay type: physicochemical
measurement parameters: Zetasizer Nano ZSP, n = 3, mean ± standard deviation
No end group written: not given here.
reported endpoint: Zeta potential (mV)
# unit: mV | format: bare number

Would you kindly share the measured Zeta potential for KETWWETWWTEWSQPKKKRKV-C [Pep1, A3B-type lactosome modified with the CPP Pep1 via maleimide-PSar56-PLLA30] ?
1.7

Would you kindly share the measured Zeta potential for GALFLGFLGAAGSTMGAWSQPKSKRKV-C [MPG^ΔNLS, A3B-type lactosome modified with the CPP MPG^ΔNLS via maleimide-PSar56-PLLA30] ?
−2.9

Would you kindly share the measured Zeta potential for RKKRRRESRKKRRRES-C (RKKRRRESRKKRRRESC; also: C-terminal Cys linked via maleimide to PSar56-PLLA30 (lactosome)) [DPV3, A3B-type lactosome modified with the CPP DPV3 via maleimide-PSar56-PLLA30] ?
−3.7

Would you kindly share the measured Zeta potential for RRRRRRRRRGALFLAFLAAALSLMG-C (RRRRRRRRRGALFLAFLAAALSLMGC; also: C-terminal Cys linked via maleimide to PSar56-PLLA30 (lactosome)) [R9MPG, A3B-type lactosome modified with the CPP R9MPG via maleimide-PSar56-PLLA30] ?
−2.7

Would you kindly share the measured Zeta potential for LIRLWSHLIHIWFQNRRLKWKKK-C (LIRLWSHLIHIWFQNRRLKWKKKC; also: C-terminal Cys linked via maleimide to PSar56-PLLA30 (lactosome)) [EB1, A3B-type lactosome modified with the CPP EB1 via maleimide-PSar56-PLLA30] ?
1.6

Would you kindly share the measured Zeta potential for YARAAARQARA-C [PTD4, A3B-type lactosome modified with the CPP PTD4 via maleimide-PSar56-PLLA30] ?
−4.2

Would you kindly share the measured Zeta potential for YGRKKRRQRRR-C [Tat, A3B-type lactosome modified with the CPP Tat via maleimide-PSar56-PLLA30] ?
−3.6

* * *

assay protocol: Particle size and polydispersity by dynamic light scattering (DLS)
Type: physicochemical
measurement parameters: Zetasizer Nano ZSP, n = 3, mean ± standard deviation
No end group written: not given here.
reported endpoint: PDI (polydispersity index)
Reply: number alone, nothing else.

Would you kindly share the measured PDI (polydispersity index) for YARAAARQARA-C [PTD4, A3B-type lactosome modified with the CPP PTD4 via maleimide-PSar56-PLLA30] ?
0.14

Would you kindly share the measured PDI (polydispersity index) for KETWWETWWTEWSQPKKKRKV-C [Pep1, A3B-type lactosome modified with the CPP Pep1 via maleimide-PSar56-PLLA30] ?
0.13

Would you kindly share the measured PDI (polydispersity index) for GALFLGFLGAAGSTMGAWSQPKSKRKV-C [MPG^ΔNLS, A3B-type lactosome modified with the CPP MPG^ΔNLS via maleimide-PSar56-PLLA30] ?
0.29

Would you kindly share the measured PDI (polydispersity index) for RKKRRRESRKKRRRES-C (RKKRRRESRKKRRRESC; also: C-terminal Cys linked via maleimide to PSar56-PLLA30 (lactosome)) [DPV3, A3B-type lactosome modified with the CPP DPV3 via maleimide-PSar56-PLLA30] ?
0.12

Would you kindly share the measured PDI (polydispersity index) for RRRRRRRRRGALFLAFLAAALSLMG-C (RRRRRRRRRGALFLAFLAAALSLMGC; also: C-terminal Cys linked via maleimide to PSar56-PLLA30 (lactosome)) [R9MPG, A3B-type lactosome modified with the CPP R9MPG via maleimide-PSar56-PLLA30] ?
0.22

Would you kindly share the measured PDI (polydispersity index) for LIRLWSHLIHIWFQNRRLKWKKK-C (LIRLWSHLIHIWFQNRRLKWKKKC; also: C-terminal Cys linked via maleimide to PSar56-PLLA30 (lactosome)) [EB1, A3B-type lactosome modified with the CPP EB1 via maleimide-PSar56-PLLA30] ?
0.12

Would you kindly share the measured PDI (polydispersity index) for YGRKKRRQRRR-C [Tat, A3B-type lactosome modified with the CPP Tat via maleimide-PSar56-PLLA30] ?
0.10

* * *

Record form. Attribute: Diameter. Fill in for each entry.
assay protocol: Particle size and polydispersity by dynamic light scattering (DLS)
Assay type: physicochemical
measurement parameters: Zetasizer Nano ZSP, lactosomes in saline, n = 3, mean ± standard deviation
Protocol: A chloroform solution containing the (PSar25)3-block-PLLA35 (100 nmol, […]) with 4 mol% of TPP (Wako Pure Chemical, Osaka, Japan), 2 mol% of ICG-PLLA34, and 10 mol% maleimide-PSar56-PLLA30 was evaporated under reduced pressure to remove the solvent, forming a thin film on the surface of the glass test tube. […] To analyze concentrations of CPP, TPP and ICG-PLLA34, absorption spectra of the lactosome complexes were measured using a BioSpec spectrometer (Shimadzu, Kyoto, Japan). […]
# unit: nm | format: bare number

Would you kindly share the measured Diameter for YARAAARQARA-C [PTD4, A3B-type lactosome modified with the CPP PTD4 via maleimide-PSar56-PLLA30] ?
37.0

Would you kindly share the measured Diameter for GALFLGFLGAAGSTMGAWSQPKSKRKV-C [MPG^ΔNLS, A3B-type lactosome modified with the CPP MPG^ΔNLS via maleimide-PSar56-PLLA30] ?
49.1

Would you kindly share the measured Diameter for KETWWETWWTEWSQPKKKRKV-C [Pep1, A3B-type lactosome modified with the CPP Pep1 via maleimide-PSar56-PLLA30] ?
37.7
